System: β-galactosidase in CMV-LacZ C2C12 myotubes
Experiment: CMV-LacZ secondary screen in C2C12 myotubes (β-Gal stabilizing assay)
Format: cell-based, mouse
Details: 10 uM; SU9516 analogs, C2C12 CMV-LacZ, N=2
measurement type: CMV-LACZ in Myotubes, value relative to DMSO
Numbers only.

Example compounds with recorded CMV-LACZ in Myotubes, value relative to DMSO:
O=Nc1c(-c2c(O)[nH]c3cc(Br)ccc23)[nH]c2ccccc12 :: 0.7933
O=Nc1c(-c2c(O)[nH]c3ccccc23)[nH]c2ccccc12 [NCGC00015545-07] :: 0.8393

Each compound below has a recorded value; state its CMV-LACZ in Myotubes, value relative to DMSO.
1. Cc1ccc2c(c1)/C(=C/c1ccccc1F)C(=O)N2
2. O=C1Nc2ccccc2/C1=C/c1cnc(-c2ccccc2)[nH]1
3. Cc1cc(C)c(/C=C2\C(=O)Nc3ccccc32)[nH]1 [NCGC00094381-03]
4. O=C1Nc2ccccc2/C1=C/c1ccc([N+](=O)[O-])cc1
5. CCn1c(O)c(C(C#N)=C2N=c3ccccc3=N2)c2ccccc21
6. Cc1ccc2c(c1)/C(=C/c1ccccc1C)C(=O)N2

Result:
1: 0.8717; 2: 1.1713; 3: 1.5444; 4: 0.9739; 5: 0.8711; 6: 0.8015

Answer for every listed entry: what is its CMV-LACZ in Myotubes, value relative to DMSO? The entries follow.
1. COc1cc(OC)c(/C=C2/C(=O)Nc3ccccc32)c(OC)c1
2. COc1ccc2c(c1)/C(=C\c1cccc(/C=C3/C(=O)Nc4ccc(OC)cc43)n1)C(=O)N2

Result:
1: 1.1513; 2: 6.3598

Each recorded value in this set is attributed to patent US9980943B2.
